Listed next: entries and their corresponding % Kill, AW (residual contact).
# Tested on: southern army worm
# measurementProtocol: Residual contact activity, southern army worm
# particulars: 1250 ppm; 7 days; 2880 min
measurementKind: % Kill, AW (residual contact)

                                        smi         studysystem  resultvalue
0   Cc1ccccc1SN(C)C(=O)Oc1cccc2c1OC(C)(C)C2  southern army worm         100%
1  Cc1ccc(SN(C)C(=O)Oc2cccc3c2OC(C)(C)C3)cc1  southern army worm         100%
2  Cc1cccc(SN(C)C(=O)Oc2cccc3c2OC(C)(C)C3)c1  southern army worm         100%
3  CN(Sc1ccc(C(C)(C)C)cc1)C(=O)Oc1cccc2c1OC(C)(C)C2  southern army worm          31%

* * *

# Tested on: southern army worm
# particulars: 39 ppm soil watering; separate test vs carbofuran; 2880 min
measurementKind: % Kill, AW (systemic) (%)

>>> df
                                   compound  unitstring  resultvalue
0  Cc1cc(C(C)(C)C)ccc1SN(C)C(=O)Oc1cccc2c1OC(C)(C)C2           %            0
1  CN(Sc1ccc(C(C)(C)C)cc1)C(=O)Oc1cccc2c1OC(C)(C)C2           %            0
2  Cc1ccc(SN(C)C(=O)Oc2cccc3c2OC(C)(C)C3)cc1           %          100
3  Cc1cccc(SN(C)C(=O)Oc2cccc3c2OC(C)(C)C3)c1           %          100
4  CNC(=O)Oc1cccc2c1OC(C)(C)C2 [Carbofuran, reference compound]           %          100
5   Cc1ccccc1SN(C)C(=O)Oc1cccc2c1OC(C)(C)C2           %           85

* * *

# System: two-spotted spider mite
# measurementProtocol: Initial contact activity, two-spotted spider mite
# particulars: Tetranychus urticae, 48 h, read-out: % Kill, SM (initial contact)
measurementKind: mortality at 1250 ppm (%)

In [3]: df
Out[3]:
                                        smi              studysystem  resultvalue
0  Cc1ccc(SN(C)C(=O)Oc2cccc3c2OC(C)(C)C3)cc1  two-spotted spider mite          100
1  CN(Sc1ccc(Cl)cc1)C(=O)Oc1cccc2c1OC(C)(C)C2  two-spotted spider mite          100
2  CN(Sc1ccc2c(c1)OCO2)C(=O)Oc1cccc2c1OC(C)(C)C2  two-spotted spider mite           38
3  Cc1cccc(SN(C)C(=O)Oc2cccc3c2OC(C)(C)C3)c1  two-spotted spider mite          100
4  CN(Sc1ccc(C(C)(C)C)cc1)C(=O)Oc1cccc2c1OC(C)(C)C2  two-spotted spider mite           27
5  Cc1cc(Br)ccc1SN(C)C(=O)Oc1cccc2c1OC(C)(C)C2  two-spotted spider mite            9
6  Cc1cc(C(C)(C)C)ccc1SN(C)C(=O)Oc1cccc2c1OC(C)(C)C2  two-spotted spider mite           77
7  CN(Sc1nc2ccccc2s1)C(=O)Oc1cccc2c1OC(C)(C)C2  two-spotted spider mite           72
8   Cc1ccccc1SN(C)C(=O)Oc1cccc2c1OC(C)(C)C2  two-spotted spider mite           28

Origin of the recorded values: patent US3997549A
